Kindly state Selectivity for each of the entries shown.
# Species on record: Rattus norvegicus
# procedure-summary: Ratio of binding affinity towards Sigma opioid receptor type 1 versus Sigma opioid receptor type 2

Some entries whose results are on file:
>>> experimental_result("CCOC(=O)CC1OC2(CCN(Cc3ccccc3)CC2)c2ccccc21 (stereo unspecified)")
449
>>> experimental_result("CCOC(=O)C1OC2(CCN(Cc3ccccc3)CC2)c2ccccc21 (stereo unspecified)")
796
>>> experimental_result("O=CCC1Cc2ccccc2C2(CCN(Cc3ccccc3)CC2)O1 (stereo unspecified)")
180
>>> experimental_result("CCOC(=O)C1Cc2ccccc2C2(CCN(Cc3ccccc3)CC2)O1 (stereo unspecified)")
1130
>>> experimental_result("CNCCC1Cc2ccccc2C2(CCN(Cc3ccccc3)CC2)O1 (stereo unspecified)")
29
>>> experimental_result("OCC1Cc2ccccc2C2(CCN(Cc3ccccc3)CC2)O1 (stereo unspecified)")
292
>>> experimental_result("N#CCC1OC2(CCN(Cc3ccccc3)CC2)c2ccccc21 (stereo unspecified)")
768
>>> experimental_result("OCCC1Cc2ccccc2C2(CCN(Cc3ccccc3)CC2)O1 (stereo unspecified)")
668

Please go through the list and note Selectivity for each molecule.
1. CCOC(=O)CC1Cc2ccccc2C2(CCN(Cc3ccccc3)CC2)O1 (stereo unspecified)
2. N#CCC1Cc2ccccc2C2(CCN(Cc3ccccc3)CC2)O1 (stereo unspecified)
3. OC1Cc2ccccc2C2(CCN(Cc3ccccc3)CC2)O1 (stereo unspecified)

*A*
1: 124; 2: 295; 3: 236
